# TARGET_OR_TEST_SYSTEM: P-glycoprotein (P-gp) (Homo sapiens)
# Construct: In-vitro Caco-2 cell monolayers were used here as a model for potential drug absorption related problems and P-gp mediated transport of drugs; endogenous in cells; host or cells: Caco-2 (human colon carcinoma, ATCC)
# Sequence (P08183 whole entry): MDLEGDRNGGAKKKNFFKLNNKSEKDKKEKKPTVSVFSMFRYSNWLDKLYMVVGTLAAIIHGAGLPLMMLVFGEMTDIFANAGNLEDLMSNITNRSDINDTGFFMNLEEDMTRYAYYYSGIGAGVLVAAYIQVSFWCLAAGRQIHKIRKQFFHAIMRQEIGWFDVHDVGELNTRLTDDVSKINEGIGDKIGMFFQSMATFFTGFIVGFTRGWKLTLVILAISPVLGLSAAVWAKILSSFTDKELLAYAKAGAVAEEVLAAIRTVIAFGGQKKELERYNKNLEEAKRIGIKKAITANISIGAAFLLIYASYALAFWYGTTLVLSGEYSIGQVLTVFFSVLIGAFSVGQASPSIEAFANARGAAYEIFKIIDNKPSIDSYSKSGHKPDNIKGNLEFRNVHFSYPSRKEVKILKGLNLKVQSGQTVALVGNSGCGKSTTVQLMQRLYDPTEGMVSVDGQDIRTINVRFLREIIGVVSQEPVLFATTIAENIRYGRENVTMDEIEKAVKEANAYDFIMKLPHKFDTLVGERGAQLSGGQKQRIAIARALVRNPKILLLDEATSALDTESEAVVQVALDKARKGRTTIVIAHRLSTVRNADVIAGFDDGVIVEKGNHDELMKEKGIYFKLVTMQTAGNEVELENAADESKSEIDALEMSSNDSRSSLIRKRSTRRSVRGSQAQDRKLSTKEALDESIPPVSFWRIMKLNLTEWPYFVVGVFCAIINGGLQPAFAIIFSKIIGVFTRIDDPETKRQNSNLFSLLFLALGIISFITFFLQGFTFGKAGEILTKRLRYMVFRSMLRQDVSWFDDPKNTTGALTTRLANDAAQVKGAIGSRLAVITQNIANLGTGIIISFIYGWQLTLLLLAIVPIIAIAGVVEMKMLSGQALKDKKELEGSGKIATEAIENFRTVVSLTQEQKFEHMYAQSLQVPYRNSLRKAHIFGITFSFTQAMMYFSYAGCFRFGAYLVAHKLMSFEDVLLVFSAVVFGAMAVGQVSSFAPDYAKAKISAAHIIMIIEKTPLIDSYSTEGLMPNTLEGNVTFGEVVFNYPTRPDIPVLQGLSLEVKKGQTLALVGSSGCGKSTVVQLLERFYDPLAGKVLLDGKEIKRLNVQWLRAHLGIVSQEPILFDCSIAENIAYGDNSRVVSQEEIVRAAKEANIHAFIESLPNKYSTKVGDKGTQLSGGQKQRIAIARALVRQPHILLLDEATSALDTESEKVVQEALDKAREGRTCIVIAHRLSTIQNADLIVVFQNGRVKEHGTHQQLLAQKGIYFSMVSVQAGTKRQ
# ASSAY_OVERVIEW: Bidirectional transport of rhodamine123 through Caco-2 monolayers co-incubated with antimalarials (P-gp inhibitory properties)
# Format: in vitro ADME
# STUDY_CONDITIONS: human, Caco-2, probe rhodamine 123; 5 μM rh123; 300 μM antimalarial drugs section; read-out: Papp of rh123 Ap-Bas

- SMILES: "COC(=O)c1ccccc1-c1c2ccc(=N)cc-2oc2cc(N)ccc12"
  TARGET_OR_TEST_SYSTEM: "P-glycoprotein (P-gp) (Homo sapiens)"
  Papp at 120 min, 5 µM: "0.5 ×10⁻⁶ cm/s"
